Tested on: L6
Experiment: Uncoupling activity in rat L6 myoblasts assessed as oxygen consumption rate incubated over 90 mins
Assay type: functional, cell-based
Conditions: Rattus norvegicus, L6, 1.5 h; read-out: EC50
Measured log10(EC50), listed per entry for reference.
Short version: log10 scale, EC50, µM.

These solved cases illustrate the format of a correct answer.
Record summary for FC(F)(F)c1ccc(-c2ccc3nc(C(F)(F)F)[nH]c3n2)cn1 : reported log10(EC50) = 1.08

Record summary for Fc1ccc(Oc2ccc3nc(C(F)(F)F)[nH]c3n2)c(F)c1 : reported log10(EC50) = 1.10

Record summary for Fc1ccccc1Oc1ccc2nc(C(F)(F)F)[nH]c2n1 : reported log10(EC50) = 1.49

Record summary for Fc1cc(F)cc(Oc2ccc3nc(C(F)(F)F)[nH]c3n2)c1 : reported log10(EC50) = 0.59

Record summary for FC(F)(F)Oc1ccc(-c2ccc3nc(C(F)(F)F)[nH]c3n2)cc1 : reported log10(EC50) = 0.11

Record summary for FC(F)(F)c1cccc(-c2ccc3nc(C(F)(F)F)[nH]c3n2)c1 : reported log10(EC50) = 0.48

Record summary for Fc1ccccc1-c1ccnc2[nH]c(C(F)(F)F)nc12 : reported log10(EC50) = 1.29

Record summary for Fc1cc(F)cc(-c2ncnc3[nH]c(C(F)(F)F)nc23)c1 : reported log10(EC50) = 0.60

Record summary for Fc1ccc(-c2ccc3nc(C(F)(F)F)[nH]c3n2)cc1 : reported log10(EC50) = 1.18

Record summary for FC(F)(F)c1cccc(Oc2ccnc3[nH]c(C(F)(F)F)nc23)c1 : reported log10(EC50) = 0.57

Now turn to the next molecule.
Record summary for FC(F)(F)c1cccc(-c2ccnc3[nH]c(C(F)(F)F)nc23)c1 : reported log10(EC50) = -0.07

====

Measured half-life, listed per entry for reference.
Assay: Half-life in C57BL/6 mouse at 10 mg/kg, po by LC-MS/MS method
Format: ADME, organism-based
Details: in vivo
# output: bare number, implied unit h

These solved cases illustrate the format of a correct answer.
Record summary for FC(F)(F)c1nc2c(-c3cccc(Cl)c3)ccnc2[nH]1 : reported half-life = 3

Record summary for FC(F)(F)c1ccc(-c2ccnc3[nH]c(C(F)(F)F)nc23)cc1 : reported half-life = 3.4

Record summary for FC(F)(F)c1nc2c(-c3cc(Cl)cc(Cl)c3)ccnc2[nH]1 : reported half-life = 25.3

Record summary for FC(F)(F)c1cccc(-c2ccnc3[nH]c(C(F)(F)F)nc23)c1 : reported half-life = 5.5

Record summary for Fc1cc(F)cc(-c2ccnc3[nH]c(C(F)(F)F)nc23)c1 : reported half-life = 2.8

Continuing:
Record summary for FC(F)(F)Oc1cccc(-c2ccnc3[nH]c(C(F)(F)F)nc23)c1 : reported half-life = 1.3

====

Measured Cmax, listed per entry for reference.
Experiment: Cmax in C57BL/6 mouse at 10 mg/kg, po by LC-MS/MS method
Type: ADME, organism-based
Details: in vivo
# output: bare number, implied unit µM

Record summary for FC(F)(F)c1nc2c(-c3cc(Cl)cc(Cl)c3)ccnc2[nH]1 : reported Cmax = 13

Record summary for FC(F)(F)c1nc2c(-c3cccc(Cl)c3)ccnc2[nH]1 : reported Cmax = 18

Record summary for FC(F)(F)c1cccc(-c2ccnc3[nH]c(C(F)(F)F)nc23)c1 : reported Cmax = 28

Record summary for FC(F)(F)c1ccc(-c2ccnc3[nH]c(C(F)(F)F)nc23)cc1 : reported Cmax = 8

Record summary for FC(F)(F)Oc1cccc(-c2ccnc3[nH]c(C(F)(F)F)nc23)c1 : reported Cmax = 22

Now turn to the next molecule.
Record summary for Fc1cc(F)cc(-c2ccnc3[nH]c(C(F)(F)F)nc23)c1 : reported Cmax = 37
